B1: Osa-1-4 twister ribozyme (parent)
chain: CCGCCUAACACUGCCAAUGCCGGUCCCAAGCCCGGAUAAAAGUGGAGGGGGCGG

Variants of: B1
Assay: self-cleavage, relative activity (ratio to wild type); higher = more cleavage; co-transcriptional
Listing of entries alongside the reported self-cleavage.

# mutation_string, self-cleavage
records = [
    ("C25G C33A", 0.03),
    ("A8C G53A", 0.07),
    ("G42U G54U", 0.37),
    ("A8C G34U", 0.07),
    ("G19C G49A", 0.04),
    ("C52G G44A", 0.98),
    ("C27A C31U", 0.09),
    ("C21U G50U", 1.03),
    ("C27U G30A", 0.02),
    ("A29C A41G", 0.04),
    ("C33G G22A", 0.16),
    ("A39C C20U", 0.94),
    ("A29U G49C", 0.04),
    ("C11A G30A", 0.03),
    ("C21G C27G", 0.03),
    ("A39C U37C", 1.02),
    ("A7G G13A", 0.06),
    ("A8U C25A", 0.07),
    ("C26A G54U", 0.12),
    ("G47A G51A", 0.12),
    ("C15U C52A", 0.26),
    ("C31A G22A", 0.04),
    ("C32G C52G", 0.16),
    ("A46U C27G", 0.03),
    ("C31G G48C", 0.03),
    ("G35U", 0.9),
    ("A41U G49C", 0.07),
    ("G23C G49U", 0.03),
    ("A10G C21U", 0.89),
    ("G34C G51U", 0.06),
    ("A40G G48U", 0.06),
    ("C32A G42C", 0.06),
    ("A7C U37A", 0.02),
    ("A16C A28G", 0.16),
    ("G44A", 0.97),
    ("G22C G51U", 0.04),
    ("A16C G47U", 0.13),
    ("A10U A8G", 0.05),
    ("A8G G53U", 0.11),
    ("G42C G49C", 0.07),
    ("A40U U18C", 0.71),
    ("A40U C9G", 0.17),
    ("C27U G19C", 0.04),
    ("A36G A39G", 1.01),
    ("G23U U12A", 0.05),
    ("A39C G13A", 0.06),
    ("A10G C9G", 0.41),
    ("C15U C21A", 0.09),
    ("G19A G42C", 0.09),
    ("C25U G19U", 0.08),
    ("A40U G48U", 0.04),
    ("C25A U18A", 0.1),
    ("A7C G35C", 0.04),
    ("G13A G30A", 0.03),
    ("A29G A7U", 0.14),
    ("C26G G50C", 0.09),
    ("A39U C11U", 0.89),
    ("C27U U43A", 0.11),
    ("C33G G23U", 0.03),
    ("C14U G13C", 0.02),
    ("C27A U43G", 0.15),
]
